Test system: HCV replicon cells (replicon RNA level)
Assay: Cell-Based HCV Replicon Assay
Conditions: Hepatitis C virus, 72 h; replicon RNA level by real time PCR (Taqman), cells harvested on day 3
pEC50: −log10 of the molar value.
observed property: pEC50

1) CS(=O)(=O)NC(=O)c1c(-c2ccc[nH]c2=O)c2cc3c(cc2n1Cc1cc(F)ccc1F)CCC3 [Compound 1] ... > 6.00
2) CS(=O)(=O)NC(=O)c1c(-c2ccc[nH]c2=O)c2cc3c(cc2n1Cc1cccc(O)c1)CCC3 [Compound 6] ... 5.30 to 6.00
3) CS(=O)(=O)NC(=O)c1c(-c2ccc[nH]c2=O)c2cc3c(cc2n1Cc1ccc(OCc2ccccc2)cc1)CCC3 [Compound 8] ... < 5.30
4) CS(=O)(=O)NC(=O)c1c(-c2ccc[nH]c2=O)c2cc3c(cc2n1Cc1ccc(F)cc1F)CCC3 [Compound 5] ... 5.30 to 6.00
5) O=C(O)c1c(-c2ccc[nH]c2=O)c2cc3c(cc2n1Cc1cc(F)ccc1F)CCC3 [Compound 3] ... 5.30 to 6.00
6) CS(=O)(=O)NC(=O)c1c(-c2ccc[nH]c2=O)c2cc3scnc3cc2n1Cc1ccnc(N)c1 [Compound 12] ... < 5.30
7) CS(=O)(=O)NC(=O)c1c(-c2ccc[nH]c2=O)c2cc3c(cc2n1Cc1ccccc1OCc1ccccc1)CCC3 [Compound 9] ... < 5.30
8) CS(=O)(=O)NC(=O)c1c(-c2ccc[nH]c2=O)c2cc3c(cc2n1Cc1ccccc1O)CCC3 [Compound 4] ... 5.30 to 6.00
9) CS(=O)(=O)NC(=O)c1c(-c2ccc[nH]c2=O)c2cc3c(cc2n1Cc1ccc(O)cc1)CCC3 [Compound 2] ... 5.30 to 6.00

---

Target: HCV NS5B polymerase (NS5BΔCT21, from HCV-Con 1 isolate, genotype 1b) (Hepatitis C virus genotype 1b)
Construct: A soluble C-terminal 21-amino acid truncated NS5B enzyme form; polyhistidine (C)
Assay: HCV NS5B Polymerase Inhibition Assay
Details: incorporation of radiolabeled CTP, 22° C. for 2 hours
pIC50: −log10 of the molar value.
observed property: pIC50

1. CS(=O)(=O)NC(=O)c1c(-c2ccc[nH]c2=O)c2cc3c(cc2n1Cc1ccc(OCc2ccccc2)cc1)CCC3 ... < 7.00
2. CS(=O)(=O)NC(=O)c1c(-c2ccc[nH]c2=O)c2cc3c(cc2n1Cc1cc(F)ccc1F)CCC3 ... > 7.60
3. CS(=O)(=O)NC(=O)c1c(-c2ccc[nH]c2=O)c2cc3c(cc2n1Cc1ccc(O)cc1)CCC3 ... > 7.60
4. CS(=O)(=O)NC(=O)c1c(-c2ccc[nH]c2=O)c2cc3scnc3cc2n1Cc1ccnc(N)c1 ... < 7.00

---

IC50 reference
Target: HCV NS5B polymerase (NS5BΔCT21, from HCV-Con 1 isolate, genotype 1b) (Hepatitis C virus genotype 1b, UniProt Q9WMX2)
Construct: A soluble C-terminal 21-amino acid truncated NS5B enzyme form; polyhistidine (C); made in house; host or cells: Escherichia coli
Assay: HCV NS5B Polymerase Inhibition Assay
Assay type: biochemical
Conditions: incorporation of radiolabeled CTP, 22° C. for 2 hours
observed property: IC50

1) CS(=O)(=O)NC(=O)c1c(-c2ccc[nH]c2=O)c2cc3c(cc2n1Cc1cccc(O)c1)CCC3 ... 25 to 100 nM
2) O=C(O)c1c(-c2ccc[nH]c2=O)c2cc3c(cc2n1Cc1cc(F)ccc1F)CCC3 ... < 25 nM
3) CS(=O)(=O)NC(=O)c1c(-c2ccc[nH]c2=O)c2cc3c(cc2n1Cc1cccc(OCc2ccccc2)c1)CCC3 ... > 100 nM
4) CS(=O)(=O)NC(=O)c1c(-c2ccc[nH]c2=O)c2cc3c(cc2n1Cc1ccc(F)cc1F)CCC3 ... 25 to 100 nM
5) Nc1cc(Cn2c(C(=O)O)c(-c3ccc[nH]c3=O)c3cc4scnc4cc32)ccn1 ... > 100 nM
6) CS(=O)(=O)NC(=O)c1c(-c2ccc[nH]c2=O)c2cc3c(cc2n1Cc1ccccc1O)CCC3 ... 25 to 100 nM
7) CS(=O)(=O)NC(=O)c1c(-c2ccc[nH]c2=O)c2cc3c(cc2n1Cc1ccccc1OCc1ccccc1)CCC3 ... > 100 nM
